# Tested on: CfEcR-DEF
# protocol-notes: GAL4/mutant CfEcR-DEF + VP16/LmUSP-EF GAL4-driven luciferase reporter transactivation in NIH3T3 cells
# Assay type: cell-based, Choristoneura fumiferana
# run-parameters: 10 nM GS™-E non-steroidal ligand; NIH3T3 cells; relative to Gal4/wild-type CfEcR-DEF switch activity
Below, each of the molecules is paired with its reported Fold increase over WT, 10 nM GS™-E value.

See these solved cases before continuing.
molecule="V107I/R175E: CfEcR-DEF LBD double mutant, V107I and R175E (protein, listed as Choristoneura fumiferana) LTANQQFLIARLIWYQDGYEQPSDEDLKRITQTWQQADDENEESDTPFRQITEMTILTVQLIVEFAKGLPGFAKISQPDQITLLKACSSEVMMLRVARRYDAASDSILFANNQAYTRDNYRKAGMAYVIEDLLHFCRCMYSMALDNIHYALLTAVVIFSDRPGLEQPQLVEEIQEYYLNTLRIYILNQLSGSARSSVIYGKILSILSELRTLGMQNSNMCISLKLKNRKLPPFLEEIWDV" result="386.4 fold"
molecule="V107I/YL27E/R175E: CfEcR-DEF LBD triple mutant, V107I, Y127E and R175E (protein, listed as Choristoneura fumiferana) LTANQQFLIARLIWYQDGYEQPSDEDLKRITQTWQQADDENEESDTPFRQITEMTILTVQLIVEFAKGLPGFAKISQPDQITLLKACSSEVMMLRVARRYDAASDSILFANNQAYTRDNYRKAGMAEVIEDLLHFCRCMYSMALDNIHYALLTAVVIFSDRPGLEQPQLVEEIQEYYLNTLRIYILNQLSGSARSSVIYGKILSILSELRTLGMQNSNMCISLKLKNRKLPPFLEEIWDV" result="124.3 fold"
molecule="T52V/V107I/R175E: CfEcR-DEF LBD triple mutant, T52V, V107I and R175E (protein, listed as Choristoneura fumiferana) LTANQQFLIARLIWYQDGYEQPSDEDLKRITQTWQQADDENEESDTPFRQIVEMTILTVQLIVEFAKGLPGFAKISQPDQITLLKACSSEVMMLRVARRYDAASDSILFANNQAYTRDNYRKAGMAYVIEDLLHFCRCMYSMALDNIHYALLTAVVIFSDRPGLEQPQLVEEIQEYYLNTLRIYILNQLSGSARSSVIYGKILSILSELRTLGMQNSNMCISLKLKNRKLPPFLEEIWDV" result="62.8 fold"

Now turn to the next molecule.
Param item = T52A/V107I/R175E: CfEcR-DEF LBD triple mutant, T52A, V107I and R175E (protein, listed as Choristoneura fumiferana) LTANQQFLIARLIWYQDGYEQPSDEDLKRITQTWQQADDENEESDTPFRQIAEMTILTVQLIVEFAKGLPGFAKISQPDQITLLKACSSEVMMLRVARRYDAASDSILFANNQAYTRDNYRKAGMAYVIEDLLHFCRCMYSMALDNIHYALLTAVVIFSDRPGLEQPQLVEEIQEYYLNTLRIYILNQLSGSARSSVIYGKILSILSELRTLGMQNSNMCISLKLKNRKLPPFLEEIWDV ; retrieve measured Fold increase over WT, 10 nM GS™-E. 2.3 fold
